Provenance of the data: the DeepSol protein solubility set

# assay-overview: soluble on expression in E. coli; label from the status in PepcDB or PDB records

sequence-entry	soluble on expression in E. coli
MGSDKIHHHHHHMTVRQIIQLAGTLDIPGLPQLDVTQDEISIANLTPLKLWAATAGWGASADDLGFEDRVTGNKIPLNGSATSSRLVNAFDGSQALSQGTAGAVLKDDSFSTAGSFTIAMNLCAINDELTCAPASSSVLPGSGQSYWFLASSAGKFRIGTTSLSTQFADYLGPLLSRTAWLRLILKYDRAVGTMTLYVNGVQQAKLTNDALKTLSLAPGLVMGGLVTTTATPTSPPCLMRSPMGFNSALSDSELALVDRYLSKTLY	not soluble
MSLRSAYLSTESKIVLDVISVSDTHGWIYGHRHLPEYGDYGTLLSYIERTRQKALESEGRSVLAVDAGDLVEGTGLSDLTKVKGEKILEAASYIGFDLQTIGNHESYYKETTDYIHSKVEALFGDRYITTNVFMRDTNVPVGSGRYKYLVLPTGLRVLMLGFLFHTSPYDGVYTIPAREAIASQEITGVLEKYKYQTDLLVLACHIPTYDLEISEIVTELRAFYNQINYTIPIIIIAGHYHQIKNTYCMDGQDKQCYIVEGGCYLRFMQHVTYEFKPMTYSHEGNTYTGYQFSSVDYSLPYNEGHHHHHH	soluble
MWRNSEERENRTSGRSQGSYQEIIGRTWIFRGAHRGRVNKKNIVWHELIGLKVRVVNSTHPGYVGIEGYVIDETRNMLVIAGENKVWKVPKDVCIFEFETWDGTKIKISGEKLVGRPEMRLKKRWRK	soluble
METVTLSEARVYVGTYNKYNSGSLFGKWLDLSDYSDKDEFMEACRELHKDDQDPEFMFQDYENIPEALISESWLSDKFFELRDAIEKLSETQQEAFFVWCDHHNNDISEEDADDLISSFEDEYQGEYKDEEDYAYEIVEECYDLPEFAKTYFDYSAFARDLFMTDYWMDNGFVFRCA	not soluble

----------
# assay-overview: soluble on expression in E. coli; label from the status in PepcDB or PDB records
recorded-metric: soluble on expression in E. coli

sequence-entry	recorded-metric	result
GAEDHANHEHDDEMSAAAAHGVESLIYRRDTPFHPVRFNDWLDDWDGAIVRAKGFAWVASRPETVLGVSQAGPSVQAGPIGEWGNDDPSTRLVFIGQEMDGDALIGELDDCLATDKERTETFASDPFPREG	soluble on expression in E. coli	not soluble
MSLTNFVGSVLEATKEAIRALNPQNSTIYESLMVGAGGDVSLKADLMCEEILSARLRHFGHIHSEESGLIEGESQDIIYLDPLDGSTNLSSLIPYYGTSVALCDPEGRTKAAAVINFCSGETFIKTDAFALHGSIWQPIDTFVPIRPLEHASKIGIFEGSHRNAPWVLGLHQKGLKFRSPGAIALSMAYAHNVSFVLFDGEIREYDTKAGLFLCSDLHIHHDERALLISRDPIIFENLLELISQKGEGHHHHHH	soluble on expression in E. coli	soluble
MSLCEDMLLCNYRKCRIKLSGYAWVTACSHIFCDQHGSGEFSRSPAICPACNSTLSGKLDIVRTELSPSEEYKAMVLAGLRPEIVLDISSRALAFWTYQVHQERLYQEYNFSKAEGHLKQMEKIYTQQIQSKDVELTSMKGEVTSMKKVLEEYKKKFSDISEKLMERNRQYQKLQGLYDSLRLRNITIANHEGTLEPSMIAQSGVLGFPLGNNSKFPLDNTPVRNRGDGDGDFQFRPFFAGSPTAPEPSNSFFSFVSPSRELEQQQVSSRAFKVKRI	soluble on expression in E. coli	soluble
GPMNQLDQLGTRINLICNVFDKWIGQQDLNYNLFAVLYTLATEGSRTQKHIGEKWSLPKQTVSGVCKTLAGQGLIEWQEGEQDRRKRLLSLTETGKAYAAPLTESAQEFSDKVFATFGDKRTTRLFADLDALAEVMEKTISENKK	soluble on expression in E. coli	soluble
GKQNTSAIEALAPHSVVFTTAGGSSPEFTSSEISEQQAERWKDSTPLGVSQTRIESDQNANTTAVMGLPEGTPLPDSVGGFIEQGALLPAELADFLHVRA	soluble on expression in E. coli	not soluble
GMDMKKHGLSIGINRIESVFFVTLKAIGTLTHEDYLVITPMLEGALSQVDQPKVSLFLDATELDGWDLRAAWDDLKLGLKHKSEFERVAILGNKDWQEWAAKIGSWFIAGEIKYFEDEDDALKWLRY	soluble on expression in E. coli	soluble
MAHHHHHHMVLIKAKNNEGKTVGEGKFSPFCFVLYGDIQYGMIRANHGWYEERKLLKEAITKTNKIKPSFVVAMGDLANKFPIDELQNEQYKDLKTDFEQLDKSIDLYVFCGNHDVGNEPTHETISNFEHFWGDSYYSYIYNNCGFIILNSAVFFNDTQVQDLKEKQFLWLDETLKKMVSKNVKHKFLFLHHALMYDHIEEDENIGLIYGDKFRNYSEKNKFHIKKETRMVIYDMLKKYKVSHVFCAHLHANREKNIDANIKQITISAVGMQAASDQSGLMIVQVAEEGVDYKYYPFEFVPSFVKV	soluble on expression in E. coli	not soluble
MHHHHHHMKHNQLPLVIEFTEQTAPKIFGGEIKTHILLFLPKSVSDYDGKLSNFKTAAESFKGKILFAFIDSDHTDNQRILEFFGLKKEECPAVRLITLEEEMTKYKPESEELTAERITEFCHRFLEGKIKPHLMSQELPEDWDKQP	soluble on expression in E. coli	soluble
MGSDKIHHHHHHMKRQAKIEIQNALVDLMAEYPFQEISTKMICAYCNINRSTFYDYYKDKFDLLDTINSKHKEKFQFLLSALHHNFENIKQDKLKLYKFFIIIAKYIKHNEQFFKDILVTYPMKTLFIDYINLARDYYQQIMNDYSTTVTNKQLYVTYIIGGQAGVFINWLSNGCNESPEEVADILLANTIKLQIQ	soluble on expression in E. coli	not soluble
MGHHHHHHSHRSQPVHILAVRRLQEEDQQFRTSSLPAIPNPFPELCGPGSPPVLTPGSLPPSQAAAKQDVKVFSEDGTSKVVEILADMTARDLCQLLVYKSHCVDDNSWTLVEHHPHLGLERCLEDHELVVQVESTMASESKFLFRKNYAKYEFF	soluble on expression in E. coli	not soluble
GDFAYTVGFNMSKNWNKVTNLGANDPIIESPWIKKVGYAIGTFYGYRSDGLLTQEDIDTGNYITDGLVPQAGDIKYVDLDGDGKLTDKDRTYIGCDVPDITYGVNLNLRYKGFELSMFGQGVTGTKVNFSMENAWAFSDYASPRKYHLKRWTVDNPNPNAAYPRIYPRTSKHSTYNQYFSDYWLFNADYFRIKNITFGYSFQKPVLQKLSLEALKLYVAAENPFTIRADHRMEDFDPETASGRGVNTRGTSSIAFGVNLTF	soluble on expression in E. coli	not soluble
MGSDKIHHHHHHMPFVFACLSIKIPRKGTVMAEPLATTPIRYSFGADEHLFAEVSESMSLEAFFKGMAVTRAVERMALDGVLDVCLANASFQVRFDPDRIAPEALLEAVRGAEAQAVAERSLQTRIIEIPVLYNDPWTHETLMRFRDRHQDPTSTDLEYAARINGLADVEAFIAAHSGAPWFVSMVGFVAGLPFMFQMVERERQLQVPKYLRPRTDTPKLTLGHGGCFGCIYSVRGAGGYQMFGVTPAPIYDPQQTLNYLKEHMVFFRPGDIVQFKPIDRRTYDQAVAEVEDGCFDLRIRPVAFSLDAFLADPVGYPKSLQEVLA	soluble on expression in E. coli	not soluble
MGSDKIHHHHHHMLTWRKHGLIYSPQAHPPLIGGAGYAQSPQALVFDDFVRIYFSTRELDDKNNKFISRVSYVDMDKNLQEILKVSAAPVIAHAELGTFDEHGIFPFNVLRHNGAVMAWTTGWNRRVSVSVDTSIGLAISHDGGDTFQRHATGPVMSASLHEPYLVGDAFVQHIEGRFHMWYIYGVGWKRQQSDSPPDRIYKIAHAVSDDGIDWVRESKPIIADLLGDDECQALPTVIKVGNRYHMIFCYRECFDFRLGSGRGYRLGYAWSDDLVTWHRDDTQVPAVSESGEWDSEMQCYPHLFQCDEKVYLLYNGNAFGKEGFGLAELTACSE	soluble on expression in E. coli	not soluble
MSLSGRAGRHERTGEVIVQSYNPEHYSIEFAKKHDFIGFYNHEMQLRKMGSYPPFYYLTMINVSDENEMKAIRTIQEMAQFLRGKLGPDAVILGPVPSTITRIKNKYRYQCIIKYKIEPNLKKELKTLITHYQKDQQKGLTITIDVQPYVLMEGHHHHHH	soluble on expression in E. coli	soluble

----------
# assay-overview: soluble on expression in E. coli; label from the status in PepcDB or PDB records
recorded-metric: soluble on expression in E. coli

sequence-entry	result
MAHHHHHHMTILHNPGLPRVLNRITPQRLELTLMLIKERKKKLRYLGSYLQHYNDRTFLYNAMGGLNGTKFIIERHHHRAQYCHPTLHNERYSVRTIKMKGAQFDQVGNFTRNTWDCSVATTNLFQDATFRRHLSAIHKDEAIALLEGWGVKYVLLDEVRKPSVQDSIYVRHNLYIHKFPHIPDPVTNVYHGDADWKWKGDEKIDYTSYGASTKDERNTFQSLWSAAVRESKDSGVAKTVQAGKKL	not soluble
MKVTDVRLRKIQTDGRMKALVSITLDEAFVIHDLRVIEGNSGLFVAMPSKRTPDGEFRDIAHPINSDMRQEIQDAVMKVYDETDEVIPDKNATSDNEESDEA	soluble
MYNETPIKRRPSTRIYVGNVPIGDGAPIAVQSMTNTKTTDVEATVAQIRALEKVGADIVRVSVPTMDAAEAFKLIKQSVSVPLVADIHFDYRIALKVAEYGVDCLRINPGNIGNEERIRSVVECARDKNIPIRIGVNGGSLEKDLMDKYKEPTPEALLESAMRHVDILDRLNFDQFKVSVKASDVFLAVESYRLLAKQIRQPLHLGITEAGGARAGAVKSAVGLGMLLAEGIGDTLRISLAADPVEEIKVGFDILKSLRIRSRGINFIACPSCSRQEFDVISTVNELERRLEDVTTAMDVSIIGCVVNGPGEALVSHIGLTGGHRKSGYYDEGERQKERFDNDNLVDSLEAKIRAKASQMANRIQVKDTTEAAALEHHHHHH	not soluble
MMNTKVALKQLMATHFITVDVPCPECGGAMTAWKEPTPDTPPRCPPVCMECGYRSVKKKEATTAKNLYESSLIKKAKDYFLNGSVLTDRKSLHKKISNYYPSNQESTKAKNISMEFCEKTLLGEIHHLILTGGVGVGKSHLAIGCLNEILVKSNYSKKVLFVSYRELLEQLKFAMNDEEARKAITGVAMSEIKAADVVVLDDIGAELGDFNKRDEKGNLILSRASNFDIDTLTGILESRIDKPTIITSNLKSKEIKYCYGERIVSRMATHSNGFMHRFTNTKDYRLKTALEHHHHHH	soluble
MSLRILIVDDEKLTRDGLIANINWKALSFDQIDQADDGINAIQIALKHPPNVLLTDVRMPRMDGIELVDNILKLYPDCSVIFMSGYSDKEYLKAAIKFRAIRYVEKPIDPSEIMDALKQSIQTVLQHQAQQDSEGHHHHHH	soluble
MSKLEAILSQEVEAEIQALLQEAEAKAEAVKREAEEKAKALLQARERALEAQYRAALRRAESAGELLVATARTQARGEVLEEVRRRVREALEALPQKPEWPEVVRKLALEALEALPGAKALVANPEDLPHLEAMARERGVELQAEPALRLGVRAVGAEGKTQVENSLLARMDRAWDAMSSKVAQALWG	soluble
